System: MFM-223
Assay: normalised viability (% of control), CellTiter-Blue; higher = more viable cells (about 100 = DMSO control)
Details: 100 nM; incubation time: 72 h
The label is fulfilled for normalised viability below 90% and not fulfilled for normalised viability equal to or exceeding 90%.

>  <Compound>
CO[C@@H]1[C@H](N(C)C(=O)c2ccccc2)C[C@H]2O[C@]1(C)n1c3ccccc3c3c4c(c5c6ccccc6n2c5c31)C(=O)NC4

>  <Assigned category>
not fulfilled

$$$$
>  <Compound>
Cn1cc(C2=C(c3cn(C4CCN(Cc5ccccn5)CC4)c4ccccc34)C(=O)NC2=O)c2ccccc21

>  <Assigned category>
not fulfilled

$$$$

Pending compound:
Q: Lab log: compare recorded normalised viability with 90%; is it strictly lower for CC(O)(CS(=O)(=O)c1ccc(F)cc1)C(=O)Nc1ccc(C#N)c(C(F)(F)F)c1 (stereo not given) [Bicalutamide] ?
Result: fulfilled

----------
Test system: DU-4475
Test: drug sensitivity score (DSS), CellTiter-Glo (DSS (AUC-based score)); higher = stronger drug effect (viability inhibition or cytotoxicity); extreme values may be limits of the assay
Settings: incubation time: 72 h
Assay endpoint: drug sensitivity score
Format: numeric value only, no unit, no commentary.

>  <Compound>
CN(C)C(=N)NC(=N)N

>  <Assay endpoint>
drug sensitivity score

>  <Numeric result>
0

$$$$
>  <Compound>
O=[N+]([O-])c1ccc2c(c1)S(=O)(=O)C=C2

>  <Assay endpoint>
drug sensitivity score

>  <Numeric result>
5.46

$$$$
>  <Compound>
CO[C@@]12[C@H](COC(N)=O)C3=C(C(=O)C(C)=C(N)C3=O)N1C[C@@H]1N[C@@H]12

>  <Assay endpoint>
drug sensitivity score

>  <Numeric result>
0

$$$$
>  <Compound>
CC(C)n1cnc2c(NCCc3ccc(O)cc3)nc(-c3csc4ccccc34)nc21

>  <Assay endpoint>
drug sensitivity score

>  <Numeric result>
0

$$$$
>  <Compound>
CC(O)(CS(=O)(=O)c1ccc(F)cc1)C(=O)Nc1ccc(C#N)c(C(F)(F)F)c1 (centres undefined) [Bicalutamide]

>  <Assay endpoint>
drug sensitivity score

>  <Numeric result>
0

$$$$

Q: Which measured drug sensitivity score value corresponds to Cc1cc(Nc2nc(N[C@@H](C)c3ncc(F)cn3)ncc2Cl)[nH]n1 ?
Result: 0

Q: Would you mind telling me what drug sensitivity score value was observed for COc1ccc(S(=O)(=O)Nc2cccnc2Nc2ccc(O)cc2)cc1 ?
Result: 5.29

Q: Entry CN[C@@H](C)C(=O)N[C@H]1CN(C(=O)CC(C)C)CC[C@H]2CC[C@@H](C(=O)NC(c3ccccc3)c3ccccc3)N2C1=O has what drug sensitivity score?
Result: 0

Q: Given the compound C=CCN(/C=C1/C(=O)O[C@H](COC)[C@@]2(C)C1=C(O)C(=O)C1=C2[C@H](OC(C)=O)C[C@]2(C)C(=O)CC[C@@H]12)CC=C , what is its reported drug sensitivity score?
Result: 0

----------
Test system: CAL-51
Experiment: normalised response (% of control), CellTiter-Glo; higher = more viable cells (100 = DMSO, 0 = benzethonium chloride kill control)
Settings: incubation time: 72 h
If the reported normalised response equals or exceeds 90%, assign class 1. If not, assign class 0.

Q: Confirm if normalised response reported for the compound O=C(O)CNC(=O)c1c(O)c2ccccc2n(Cc2ccccc2)c1=O [IOX-2] (5 nM) is 90% or above.
Result: class 1

Q: Dear colleague, could you confirm whether Nc1ccn([C@@H]2O[C@H](CO)[C@@H](O)C2(F)F)c(=O)n1 [Gemcitabine] (100 nM) has normalised response at or above 90%?
Result: class 0

Q: // inclusive: normalised response at least 90%? input: CC(O)(CS(=O)(=O)c1ccc(F)cc1)C(=O)Nc1ccc(C#N)c(C(F)(F)F)c1 (centres undefined) [Bicalutamide] (10 nM)
Result: class 1

Q: Could you please find out whether C/C(=C\c1csc(C)n1)[C@@H]1C[C@@H]2O[C@]2(C)CCC[C@H](C)[C@H](O)[C@@H](C)C(=O)C(C)(C)[C@@H](O)CC(=O)N1 [Ixabepilone] (1 nM) has normalised response that meets 90% or exceeds it?
Result: class 1

Q: Does normalised response meet or surpass 90% for Nc1ccn([C@@H]2O[C@H](CO)[C@@H](O)C2(F)F)c(=O)n1 [Gemcitabine] (0.1 nM) ?
Result: class 1

----------
Test system: BT-474
Assay: normalised response (% of control), CellTiter-Glo; higher = more viable cells (100 = DMSO, 0 = benzethonium chloride kill control)
Settings: incubation time: 72 h
Assay endpoint: normalised response (%)
// return numeric value only (unit: %, not printed)

Observe how each entry below is paired with its result.
>  <Molecule>
CC(C)(C)c1nc(-c2cccc(NS(=O)(=O)c3c(F)cccc3F)c2F)c(-c2ccnc(N)n2)s1 [Dabrafenib] (2500 nM)

>  <Assay endpoint>
normalised response

>  <Numeric result>
100

$$$$
>  <Molecule>
CC(C)C[C@H](NC(=O)[C@@H](COC(C)(C)C)NC(=O)[C@H](Cc1ccc(O)cc1)NC(=O)[C@H](CO)NC(=O)[C@H](Cc1c[nH]c2ccccc12)NC(=O)[C@H](Cc1cnc[nH]1)NC(=O)[C@@H]1CCC(=O)N1)C(=O)N[C@@H](CCCNC(=N)N)C(=O)N1CCC[C@H]1C(=O)NNC(N)=O [Goserelin] (10000 nM)

>  <Assay endpoint>
normalised response

>  <Numeric result>
92.6

$$$$
>  <Molecule>
COc1cc(Nc2c(C#N)cnc3cc(OCCCN4CCN(C)CC4)c(OC)cc23)c(Cl)cc1Cl [Bosutinib] (10000 nM)

>  <Assay endpoint>
normalised response

>  <Numeric result>
2.86

$$$$
>  <Molecule>
Nc1ccn([C@@H]2O[C@H](CO)[C@@H](O)C2(F)F)c(=O)n1 [Gemcitabine] (1000 nM)

>  <Assay endpoint>
normalised response

>  <Numeric result>
74.2

$$$$
>  <Molecule>
CC(=O)[C@]1(O)Cc2c(O)c3c(c(O)c2[C@@H](O[C@H]2C[C@H](N)[C@H](O)[C@H](C)O2)C1)C(=O)c1ccccc1C3=O [Idarubicin] (1000 nM)

>  <Assay endpoint>
normalised response

>  <Numeric result>
16.6

$$$$
>  <Molecule>
CO[C@@H]1[C@H](N(C)C(=O)c2ccccc2)C[C@H]2O[C@]1(C)n1c3ccccc3c3c4c(c5c6ccccc6n2c5c31)C(=O)NC4 [Midostaurin] (10000 nM)

>  <Assay endpoint>
normalised response

>  <Numeric result>
41.7

$$$$

Q: Kindly state the measured normalised response obtained for CCNC(=O)CCC/C=C\C[C@@H]1[C@@H](/C=C/[C@@H](O)CCc2ccccc2)[C@H](O)C[C@@H]1O [Bimatoprost] (5500 nM) with BT-474.
Result: 95

Q: Give normalised response (BT-474) of the following molecule: COc1ccc(S(=O)(=O)Nc2cccnc2Nc2ccc(O)cc2)cc1 [ABT-751] (10000 nM)
Result: 53.8

Q: Write down the reported normalised response of C/C(=C\c1csc(C)n1)[C@@H]1C[C@@H]2O[C@]2(C)CCC[C@H](C)[C@H](O)[C@@H](C)C(=O)C(C)(C)[C@@H](O)CC(=O)N1 [Ixabepilone] (1000 nM) , test system: BT-474.
Result: 41.9

Q: Form field - read-out: normalised response; system: BT-474; submitted item: CC(O)(CS(=O)(=O)c1ccc(F)cc1)C(=O)Nc1ccc(C#N)c(C(F)(F)F)c1 (configuration not stated) [Bicalutamide] (10000 nM)
Result: 108

Q: Entry CN(Cc1cnc2nc(N)nc(N)c2n1)c1ccc(C(=O)N[C@@H](CCC(=O)O)C(=O)O)cc1 [Methotrexate] (50000 nM) , system BT-474: what normalised response was measured?
Result: 23.6

Q: Value wanted: normalised response (BT-474) of entry CC1(C)CCC(c2ccc(Cl)cc2)=C(CN2CCN(c3ccc(C(=O)NS(=O)(=O)c4ccc(N[C@H](CCN5CCOCC5)CSc5ccccc5)c(S(=O)(=O)C(F)(F)F)c4)cc3)CC2)C1 [Navitoclax] (10000 nM)
Result: 23.5

----------
normalised response for assorted molecules
Tested on: Hs578T
Assay: normalised response (% of control), CellTox Green; higher = less cell death (100 = DMSO, 0 = benzethonium chloride kill control)
Details: incubation time: 72 h
Entry rule: numbers only, all in %.

# count of solved cases: 5
>  <Molecule>
CCNC(=O)c1noc(-c2cc(C(C)C)c(O)cc2O)c1-c1ccc(CN2CCOCC2)cc1 [NVP-AUY922] (1000 nM)

>  <normalised response, %>
-31.9

$$$$
>  <Molecule>
CC1(COc2ccc3c(c2)ncn3-c2ccc3cccc(N4CCC(N)CC4)c3n2)COC1 [Crenolanib] (100 nM)

>  <normalised response, %>
107

$$$$
>  <Molecule>
CCNC(=O)c1noc(-c2cc(C(C)C)c(O)cc2O)c1-c1ccc(CN2CCOCC2)cc1 [NVP-AUY922] (10 nM)

>  <normalised response, %>
105

$$$$
>  <Molecule>
CCn1c(C(=O)N(C2CC2)C2CC2)cc2c3c(ncn3C)c(Nc3cc(C)n(C)n3)nc21 (10000 nM)

>  <normalised response, %>
89.6

$$$$
>  <Molecule>
CN[C@@H](C)C(=O)N[C@H]1CN(C(=O)CC(C)C)CC[C@H]2CC[C@@H](C(=O)NC(c3ccccc3)c3ccccc3)N2C1=O [AT-406] (10000 nM)

>  <normalised response, %>
92.7

$$$$

Q: Lab note: need normalised response for Cc1cn(-c2cc(NC(=O)c3ccc(C)c(Nc4nccc(-c5cccnc5)n4)c3)cc(C(F)(F)F)c2)cn1 [Nilotinib] (1000 nM) on Hs578T, anyone have it?
Result: 104

Q: API: value(readout=normalised response, system=Hs578T) for record Cn1cc(C2=C(c3cn(C4CCN(Cc5ccccn5)CC4)c4ccccc34)C(=O)NC2=O)c2ccccc21 [Enzastaurin] (100 nM)
Result: 111

Q: normalised response of CNC(=O)c1ccccc1Sc1ccc2c(/C=C/c3ccccn3)n[nH]c2c1 [Axitinib] (1000 nM) on Hs578T?
Result: 115
